# assay overview: NCI Yeast Anticancer Drug Screen. Data for the sgs1 mgt1 strain (AID 161)
# assay setup: S. cerevisiae sgs1 mgt1 strain, at 5.0 µM (retest, dose inferred, filed as 0.5)
Compounds without any hit were thinned out: in the full panel of roughly 79,000, 15% have a hit. Activity calls are given as the source filed them. No stated cut-off is given here; in the data, active means growth inhibition above about 70%; inactive means the rest.
A correct response names exactly one class from active, inactive

Field: example entries. Status: answers known.
compound: O=P(CP(=O)(c1ccccc1)c1ccccc1)(c1ccccc1)c1ccccc1.[CH3][Sn]([CH3])([Cl])[Cl]
label: inactive
--
compound: CCC[CH2][Sn]1([CH2]CCC)[O]C(=O)c2cccc(C)c2[O]1
label: active
--
compound: Nc1ccc(Cl)cc1C(=O)c1ccccc1Cl
label: inactive
--
compound: COC1NC(=O)NC(=O)C1=[N+]=[N-] (centres undefined)
label: inactive
--
compound: O=C(N/N=C/c1cc(Cl)cc(Cl)c1[O-])c1ccccc1O.O=C(N/N=C/c1cc(Cl)cc(Cl)c1[O-])c1ccccc1O.[Mn+2]
label: inactive

# outcome recorded in this test, key = C(CCC[Te][Te]CCCCCCOC1CCCCO1)CCOC1CCCCO1 (centres undefined) inactive

# outcome recorded in this test, key = CC(=O)O[C@H]1CC[C@H]2[C@@H]3CCC4=CC(=O)CC[C@@H]4[C@H]3CC[C@]12C inactive

# outcome recorded in this test, key = CN(C)CCSC1=Nc2ccc(Cl)cc2C(c2ccccc2Cl)=NC1 inactive

# outcome recorded in this test, key = Cc1ccc(P(=O)(c2ccc(C)cc2)c2ccc(C)cc2)cc1.Cc1ccc(P(=O)(c2ccc(C)cc2)c2ccc(C)cc2)cc1.[Cl][Sn]([Cl])([Cl])[Cl] inactive

Measured values drawn from PubChem BioAssay (NCI) for this set.
